Biological target: Adrenergic α1D (Homo sapiens, UniProt P25100)
Sequence (P25100 1-572): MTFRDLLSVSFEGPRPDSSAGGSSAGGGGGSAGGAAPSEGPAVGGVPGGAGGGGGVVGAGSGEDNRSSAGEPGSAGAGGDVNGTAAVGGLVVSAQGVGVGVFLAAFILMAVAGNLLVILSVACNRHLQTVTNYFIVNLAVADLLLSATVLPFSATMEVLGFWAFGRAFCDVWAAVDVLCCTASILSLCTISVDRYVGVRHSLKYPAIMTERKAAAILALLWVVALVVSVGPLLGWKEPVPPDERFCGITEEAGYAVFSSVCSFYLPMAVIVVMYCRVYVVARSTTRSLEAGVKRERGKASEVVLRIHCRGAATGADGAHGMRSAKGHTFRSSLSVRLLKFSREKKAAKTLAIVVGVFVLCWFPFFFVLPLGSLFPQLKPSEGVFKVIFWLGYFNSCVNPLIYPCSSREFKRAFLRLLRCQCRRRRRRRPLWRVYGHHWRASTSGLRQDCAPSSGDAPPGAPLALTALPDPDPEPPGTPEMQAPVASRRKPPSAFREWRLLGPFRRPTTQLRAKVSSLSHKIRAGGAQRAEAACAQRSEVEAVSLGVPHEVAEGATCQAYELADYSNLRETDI
measurement_kind: pKi
# reply with the number alone; pKi is -log10 of concentration in mol/L

[Q] Recorded pKi of CN[C@H]1CC[C@@H](c2ccc(Cl)c(Cl)c2)c2ccc(C#CCCCO)cc21 [compound Ia, hydroiodide] , please.
[A] 5.91
